B1: TPR t1 (parent)
chain: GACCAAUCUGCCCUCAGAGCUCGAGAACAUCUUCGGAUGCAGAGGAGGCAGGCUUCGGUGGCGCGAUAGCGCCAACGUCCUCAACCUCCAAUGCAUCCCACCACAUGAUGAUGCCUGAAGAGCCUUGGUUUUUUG

Variants of: B1
Assay: polymerase ribozyme fitness, log enrichment relative to wild type (log ratio); higher = more active; in vitro selection for triplet polymerase activity
testReadout: polymerase ribozyme fitness (log ratio)
Respond using a number only.

Answered examples (5):
GACCAAUCUGCCCUCAGAGCUCGAGAACAUCUUCGGAUGCAGAGGAGGCAGGCUUCGGUGGCGCGAUAGCGCCAACGUCCUCUACCUCCAAUCCAUCCCACCAUAUGAUGAUGCCGGAAGAACCUUGGUUUUUUG [A83U G93C C104U U116G G122A] :: -4.03
GACCAAUCUGCCCUCAGAGCUCGAGAACAUCUUCGGAUGCAGAGGAGGCAGGCUUCGGUGGCGCGAUAGCGCCAACGUACUCAACCUCCAAUGCAUCCCACCACAUGAUGAAGCCUGAAGAGCCUUGUUUUUUUG [C79A U112A G128U] :: -3.42
GACCAAUCUGCCCUCAGAGCUCGAGUACAUCUUCGGAUGCAGAGGAGGCAGGCUUCGGUGGCGCGAUAGCGCCAACGUCCUCUACCUCCAAUGCAUCCCACCACAUGAUGAUGCCUGAAGAGCCUUGGUUUUUUG [A26U A83U] :: -2.58
GACCAAUCUGCCCUCAGAGCUCGAGAACAUCUUCGGAUGCAGACGAGGCAGGCUUCGGUGACGCGAUAGCGCCAACGUCAUCAACCUCCAAUGCAUCCCACCACAUGAUGAUGCCUGAAGAGCCUUGGUUUUUUG [G44C G61A C80A] :: -4.34
GACCAAUCUGCCCUCAGAGCUCGAGAACAUCUUCCGAUGCAGAGUAGGCAGGCUUCGGUGACGCGAUAGCGCCAACGUCCUCAACCUCCAAUGCAUCCCACCACAUGAUGAUGCCUGAAGGGCCUUGGUUUUUUG [G35C G45U G61A A121G] :: -3.1

Form: variant = GACCAAUCUGCCCUCUGAGCUCGAGAACAUCUUCGGAUGCAGAGGAGGCAGGCUUCGGUGGCGCGAUAGCGCCAACGUUCUCAACCUCCAGUGCAUCCCACCACAUGAUGAUGCCUGAAGAGGCUUGGUUGUUUG [A16U C79U A91G C123G U131G] ; polymerase ribozyme fitness (log ratio) = -1.49

Form: variant = GACCAAUCUGCGCUUAGAGCUCGAGAACAUCUUCGGAUGCAGAGGAGACAGGCUUCGGUGACGCGAUAGCGCCAACGUCCGCAACCUCCAAUGCAUCCCACCACAUGAUGAUGCCUGAAGAGUCUUGGUUUUUUG [C12G C15U G48A G61A U81G C123U] ; polymerase ribozyme fitness (log ratio) = -2.3

Form: variant = GACCAAUCUGCCCUCAGAGCUUGAGACCAUCUUCGGAUGCUGAGGAGGCUGGCUUCGGUCGCGCGAUAGCGCCAACGUCCUUAACCUCCAAUGCAUCCCACCACAUGAUGAUGCCUGAAGAGCCUUGGUUUUUUG [C22U A27C A41U A50U G60C C82U] ; polymerase ribozyme fitness (log ratio) = -6.98

Form: variant = GACCAAUCUGCCCUCAGAGCUCGAGAACAUCUUCGGAUGCAGGGGAGGCAGGCUUCGGUGGCGCGAUAGCGCCAACAUCCUCCACCUGCAAUGCAUCCCACCACAUGAUGAUGCCUGAAGUGCCUUGUUUUUUUG [A43G G77A A83C C88G A121U G128U] ; polymerase ribozyme fitness (log ratio) = -5.57

Form: variant = GACCAAUCUGCCCUCAGAGCUCGAGAAGAUCUUCGGAUGCAGAGGAGGCAGGCUUCGGUGGCGCGAUAGCGCCAACGUCCUCAACCUCCAAUGCAUCCCACCACAUGAUUAUGCCUGAAGAGCUUUGGUUUUUUG [C28G G110U C124U] ; polymerase ribozyme fitness (log ratio) = -0.355

Form: variant = GACCAAUCUGCCCUCAGAGCUCGAGAACAUCUUCGGAUGCAGAGGAGGUAGGCUUCGGGGGCGCGAUAGCGUCAACGUCCUCAACCUCCAAUGCAUCCCACCACAUGAUGAUGCCUGAAGAGCCUUGGUUUUUUG [C49U U59G C72U] ; polymerase ribozyme fitness (log ratio) = -1.12

Just for reference, the RNAGym collection of RNA variant scans (doi:10.1073/pnas.2313332121) is where these values come from.
